# assay comment: small-molecule microarray binders of probe aDKK1, primary screen, biochemical, biotinylated probe, 635/667 nm fluorescence (AID 1099);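 also: score merges 667nm spot fluorescence with signal to noise across triplicate slides; reference of the scale not given here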
# condition parameters: higher = more signal
readout type: composite z-score
Give the figure by itself; no unit, no explanation.

The reported composite z-score of the compound CC1CC/C=C\[C@H]2OC34C=CCN(C(C)(C)C)C(=O)[C@H]3N(C(C)CO)C(=O)[C@@H]4C2C(=O)O1 (some centres undefined) was -0.366

Measured composite z-score, CC(C)C[C@@H]1NC(=O)[C@H](C(C)C)NC(=O)[C@@]23C(=O)N[C@@H](Cc4ccccc4)C2[C@H](C)[C@@]2(C)O[C@H]2C3/C=C/CC/C=C/CNC1=O (some centres undefined) : -0.189

The compound listed as CCOC(=O)C[C@H]1[C@H](OC(=O)c2ccccc2-c2ccccc2)[C@@H](NC(=O)CC(C)C)c2cc(OCCCO)ccc2N1C(=O)Cc1ccc(OC)cc1 shows composite z-score equal to -0.235

For reference, reported composite z-score for COC(=O)[C@H](Cc1ccccc1)N1CC2=C[C@@H](C3CC3)n3c(=O)n(C)c(=O)n3[C@H]2[C@@H]1[C@@H](O)Cc1ccccc1 stands at -0.412
